Entry source: patent US20240132498A1

Test: Long-term storage stability of the solid (1, 3, 6 months)
Assay type: physicochemical
Settings: 40° C./75% RH, 3 months
Source text: For long-term (1 month or longer) stability experiments, solid material was placed into LDPE bags and sealed in a HDPE container at elevated storage conditions, unless otherwise stated.
Parameter Measured: Total Impurities (%)
Numbers only, in %.

State the recorded Total Impurities for this entry: C[C@H]1CC[C@H](N2CC(=O)N(Cc3ccc(F)c(F)c3)C3(CN(C=O)C3)C2=O)CC1 [Form II]
0.9

====

For each entry below, report its clearance value.
Assay: Rat single dose pharmacokinetics
Assay type: in vivo
Details: male, plasma, iv, Sprague Dawley rats
Answers are plain numbers, in mL/min/kg.

Molecule	Result Unit	clearance
O=CN1CC2(C1)C(=O)N(c1ccc(F)cc1F)CC(=O)N2Cc1ccc(Cl)cc1 [Comparator A]	mL/min/kg	29.6
CC(=O)N1CC2(C1)C(=O)N(c1ccc(C#N)cc1F)CC(=O)N2Cc1ccc(C(F)(F)F)cc1 [Comparator D]	mL/min/kg	8.23
O=CN1CC2(C1)C(=O)N([C@H]1CC[C@H](C(F)F)CC1)CC(=O)N2Cc1ccc(C(F)(F)F)cc1 [Comparator E]	mL/min/kg	18.8
C[C@H]1CC[C@H](N2CC(=O)N(Cc3ccc(F)c(F)c3)C3(CN(C=O)C3)C2=O)CC1 [Compound 1]	mL/min/kg	52.6

Consider the record given below.
Fill blank: measured clearance of the molecule O=C1[C@H](C2COC2)N(Cc2ccc(C(F)(F)F)cc2)C(=O)CN1c1ncc(Cl)cc1F [Comparator C, reference compound] is ____.
20.2
